System: RS4; 11 with G101V mutation
Assay: In vitro anti-proliferation assay (ATPlite luminescence) in BCL-2-dependent ALL cell line RS4;11 with G101V mutation
Type: cell-based
Settings: cellular anti-proliferative IC50, about 72 hours, medium with 10% FBS, ATPlite; read-out: RS411-G101V IC50
property: pIC50
A value of pIC50 is the negative decimal logarithm of a concentration given in moles per litre.

molecule: Cc1ccccc1[C@@H]1CN([C@@H]2CCOc3cc(F)c(F)cc32)CCN1C1CC2(CCN(c3ccc(C(=O)NS(=O)(=O)c4cc5c(c([N+](=O)[O-])c4)N[C@H](C4CCOCC4)CO5)c(N4c5cc6cc[nH]c6nc5O[C@H]5COCC[C@@H]54)c3)CC2)C1 [Example 171]
pIC50: 6.66

I'm curious: which pIC50 was measured for COc1cc(CN2CCN([C@@H]3CC4(CCN(c5ccc(C(=O)NS(=O)(=O)c6ccc(NCC7CCC(C)(O)CC7)c([N+](=O)[O-])c6)c(N6c7cc8cc[nH]c8nc7O[C@H]7COCC[C@@H]76)c5)CC4)[C@@H]3C)[C@H](c3ccccc3C)C2)cnc1N1CCOCC1 (some centres unmarked) [Example 140] tested on RS4; 11 with G101V mutation?
8.19

----------
Tested on: RS4; 11 with G101V mutation
Assay: In vitro anti-proliferation assay (ATPlite luminescence) in BCL-2-dependent ALL cell line RS4;11 with G101V mutation
Assay type: cell-based
Details: Homo sapiens, RS4-11, 72 h; read-out: RS411-G101V IC50
The molecules listed here are annotated with their IC50.
Express your answer in µM, writing the number without its unit.

Example entries and their recorded answers appear below.
lineNotation: COc1cc2c(nc1N1CCOC[C@@H]1C)COC[C@@H]2N1CCN(C2CC3(CCN(c4ccc(C(=O)NS(=O)(=O)c5cc6c(c([N+](=O)[O-])c5)N[C@H](C5CCOCC5)CO6)c(N5c6cc7cc[nH]c7nc6O[C@H]6COCC[C@@H]65)c4)CC3)C2)[C@H](c2ccccc2OC(C)C)C1
property: IC50
recordedResult: 0.00464

lineNotation: Cc1ccccc1[C@@H]1CN([C@@H]2CCOc3c(F)cc(F)cc32)CCN1C1CC2(CCN(c3ccc(C(=O)NS(=O)(=O)c4cc5c(c([N+](=O)[O-])c4)N[C@H](C4CCOCC4)CO5)c(N4c5cc6cc[nH]c6nc5O[C@H]5COCC[C@@H]54)c3)CC2)C1
property: IC50
recordedResult: 0.145

lineNotation: CC(C)Oc1ccccc1[C@@H]1CN(Cc2ccc(F)c(F)c2)CCN1C1CC2(CCN(c3ccc(C(=O)NS(=O)(=O)c4cc5c(c([N+](=O)[O-])c4)N[C@H](C4CCOCC4)CO5)c(N4c5cc6cc[nH]c6nc5O[C@H]5COCC[C@@H]54)c3)CC2)C1
property: IC50
recordedResult: 0.0096

Please report the recorded IC50 for `CC(C)Oc1ccccc1[C@@H]1CN([C@H]2CCOc3c(F)cc(F)cc32)CCN1C1CC2(CCN(c3ccc(C(=O)NS(=O)(=O)c4cc5c(c([N+](=O)[O-])c4)N[C@H](C4CCOCC4)CO5)c(N4c5cc6cc[nH]c6nc5O[C@H]5COCC[C@@H]54)c3)CC2)C1` .
0.385

Please report the recorded IC50 for `COc1cc2c(nc1N1CCOC[C@@H]1C)COC[C@H]2N1CCN(C2CC3(CCN(c4ccc(C(=O)NS(=O)(=O)c5cc6c(c([N+](=O)[O-])c5)N[C@H](C5CCOCC5)CO6)c(N5c6cc7cc[nH]c7nc6O[C@H]6COCC[C@@H]65)c4)CC3)C2)[C@H](c2ccccc2OC(C)C)C1` .
0.0843
